These entries and their values trace back to ChEMBL document CHEMBL5543151.

Catalogue of pEC50 readings, one per entry.
Target: ATP-dependent Clp protease proteolytic subunit, mitochondrial (Homo sapiens, UniProt Q16740)
Sequence (Q16740 whole entry): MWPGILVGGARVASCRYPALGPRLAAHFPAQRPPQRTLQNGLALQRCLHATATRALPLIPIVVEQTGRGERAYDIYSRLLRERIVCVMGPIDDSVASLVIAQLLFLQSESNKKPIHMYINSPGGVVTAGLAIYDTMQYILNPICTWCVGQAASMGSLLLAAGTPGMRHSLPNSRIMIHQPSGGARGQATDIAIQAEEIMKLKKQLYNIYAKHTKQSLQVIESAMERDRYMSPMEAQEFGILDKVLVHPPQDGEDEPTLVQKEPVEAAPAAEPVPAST
Assay: Agonist activity at human Casein lysing protease P (HsClpP) assessed as increase in peptidase activity using fluorescent peptide AC-WLA-AMC as substrate measured after 2 hrs by […]
pEC50: −log10 of the molar value.

# smiles_string, measurement_qualifier, pEC50
data = [
    ("N#Cc1cccc(CN2CCc3[nH]c(NCc4ccccc4)nc(=O)c3C2)c1", "=", 6.21),
    ("Cc1ccccc1CN1CCn2c1nc(=O)c1c2CCN(Cc2ccccc2)C1", "=", 5.72),
    ("O=c1nc(NCc2ccc(C(F)(F)F)cc2)[nH]c2c1CN(Cc1cc(F)cc(F)c1)CC2", "<", 5.00),
    ("O=c1nc(NCc2cnccn2)[nH]c2c1CN(Cc1ccccc1)CC2", "<", 5.00),
    ("CS(=O)(=O)c1ccc(CN2CCc3[nH]c(NCc4ccccc4)nc(=O)c3C2)cc1", "<", 5.00),
]

###

Below, each entry is listed alongside its reported half-life.
Test: Half life in Sprague-Dawley rat at 15 mg/kg, po measured upto 12 hrs by LC-MS analysis
Format: ADME, organism-based
Settings: in vivo
result_type: half-life (h)

# smiles_string, result_type, measure_unit, observed_measurement
rows = [
    ("Cc1ccccc1CN1C(=O)C2=C(CCN(Cc3ccccc3)C2)N2CCN=C12.Cl", "half-life", "h", 1.4),
    ("Cl.N#Cc1cccc(CN2CCc3[nH]c(NCc4ccc(F)cc4)nc(=O)c3C2)c1", "half-life", "h", 3.9),
]

###

// reported Cmax per item
Assay: Cmax in Sprague-Dawley rat at 5 mg/kg, iv measured upto 12 hrs by LC-MS analysis
Assay type: ADME, organism-based
Settings: in vivo

# smiles_string, Cmax / ng/mL
data = [
    ("Cl.N#Cc1cccc(CN2CCc3[nH]c(NCc4ccc(F)cc4)nc(=O)c3C2)c1", 869),
    ("Cc1ccccc1CN1C(=O)C2=C(CCN(Cc3ccccc3)C2)N2CCN=C12.Cl", 970),
]

###

Assay: Tmax in Sprague-Dawley rat at 15 mg/kg, po measured upto 12 hrs by LC-MS analysis
Assay type: ADME, organism-based
Conditions: in vivo

# smiles_string, measure_unit, Tmax
rows = [
    ("Cc1ccccc1CN1C(=O)C2=C(CCN(Cc3ccccc3)C2)N2CCN=C12.Cl", "min", 30),
    ("Cl.N#Cc1cccc(CN2CCc3[nH]c(NCc4ccc(F)cc4)nc(=O)c3C2)c1", "min", 60),
]

###

Tested on: MV4-11
Assay: Anti-leukemia activity against human MV4-11 cells assessed as decrease in cell proliferation incubated for 72 hrs by CCK-8 assay
Format: functional, cell-based
Conditions: MV4-11, 72 h
pIC50: −log10 of the molar value.
Item-by-item account of pIC50

# smiles_string, pIC50
rows = [
    ("N#Cc1cccc(CN2CCc3[nH]c(NCc4ccc(C(F)(F)F)cc4)nc(=O)c3C2)c1", "< 5.00"),
    ("O=c1nc(NCc2cccc(F)c2)[nH]c2c1CN(Cc1ccccc1)CC2", "< 5.00"),
    ("N#Cc1cccc(CN2CCc3[nH]c(NCc4cccc(F)c4)nc(=O)c3C2)c1", "< 5.00"),
]
